Tested on: Plasmodium falciparum Dd2 asexual blood stage parasites
Assay: microbe, parasite or virus in culture
Set-up: species or system Plasmodium falciparum Dd2 in human erythrocytes; single determination (one 11-point concentration-response curve)
Conditions: Plasmodium falciparum, DD2, Erythrocyte, 72 h; read-out: AC50
Mark 1.0 for AC50 under 5 µM, 0.0 if at or over.

Q) AC50 strictly < 5 µM for this compound? CC1CC(C)CN(C(=O)c2ccc3ccccc3c2)C1 (centres unmarked) [MLS001161774-01]
A) 1.0

Q) Threshold test, AC50 < 5 µM: CC(C)(C)n1nnnc1C(c1cccnc1)N(Cc1ccccc1)Cc1ccco1 (centres unmarked) [MLS000528003-01]
A) 0.0

Q) Does this compound meet the criterion AC50 < 5 µM? COc1ccc2[nH]c(C)c(CCN(Cc3cccs3)C(S)=Nc3ccc(F)cc3)c2c1 [MLS000529849-01]
A) 1.0

Q) Item CN(Cc1ccccc1)C(=O)[C@H]1O[C@H](CCN2CCN(c3ccc(F)cc3)CC2)CC[C@@H]1O [NCGC00401502-01] : AC50 beneath 5 µM, strictly?
A) 0.0

Q) Dear colleague, could you confirm whether AC50 of Cc1nc2cc(F)ccc2n1C1CCN(C(=O)c2c(F)cccc2F)CC1 [MLS000710077-01] falls below 5 µM? Thanks.
A) 0.0

Q) Strictly below 5 µM: is that where AC50 of CCn1ncc(CN2CCCC23CCN(c2cc(C)nc4ccccc24)CC3)c1C [NCGC00442843-01] sits?
A) 0.0

Q) Please state whether AC50 is below 5 µM for Cc1nc(-c2ccc(F)cc2)n(CC(=O)Nc2cccc(Cl)c2)c(=O)c1CCO [NCGC00470975-01]
A) 0.0

Q) Hello, is AC50 of the following compound strictly smaller than 5 µM? COc1cccc(Nc2ccc3c(n2)C(C)(C(=O)NC2CCC2)CN(C)C3)c1 (centres unmarked) [NCGC00414508-01]
A) 0.0

----------
System: Plasmodium falciparum Dd2 asexual blood stage parasites
Experiment: microbe, parasite or virus in culture
Design: species or system Plasmodium falciparum Dd2 in human erythrocytes; single determination (one 11-point concentration-response curve)
Settings: Plasmodium falciparum, DD2, Erythrocyte, 72 h; read-out: AC50
Threshold check on AC50: strictly below 7 µM is MET; on or above 7 µM is NOT MET.

Q) I'd appreciate it if you could check whether O=C(Nc1ccc2c(N3CCCCC3)ncnc2c1)c1cc(F)cc(F)c1 [NCGC00425525-01] has AC50 smaller than 7 µM.
A) MET

Q) Does the reported AC50 of the following compound sit strictly below 7 µM? CCOC(=O)c1cnc2c(C)cc(C)cc2c1O [MLS000530578-01]
A) MET

Q) Report whether reported AC50 is lower than 7 µM (strictly) for COc1ncccc1-c1nc(-c2c(C)noc2C)cc2c1cc(-c1ccccc1)n2C [NCGC00417163-01]
A) NOT MET

Q) Answer whether the compound Cc1sc(NC(=O)c2ccco2)c(C(c2cccnc2)N2CCC(C)CC2)c1C (stereo not shown) [MLS000536186-01] has AC50 strictly less than 7 µM
A) MET

Q) Lab log: compare recorded AC50 with 7 µM; is it strictly lower for CCN1C(=O)C2(CCN([S+](=O)([O-])c3ccc(Cl)cc3C)CC2)c2ccccc21 [NCGC00435870-01] ?
A) MET

Q) I wonder whether Cc1ccccc1OCCn1cc(C(=O)c2ccco2)c2ccccc21 [NCGC00101854-01] has AC50 below 7 µM. Can you tell?
A) MET

Q) Below 7 µM on AC50? Entry N#CC(=C1CCCC1)c1nc(-c2ccccc2O)cs1 [MLS000034824-01]
A) NOT MET

Q) Could you please tell me whether AC50 recorded for CN(C)c1nc2c(c(=O)[nH]1)CCN(Cc1ccc(F)cc1Cl)CC2 [NCGC00440505-01] is less than 7 µM?
A) NOT MET

Q) Confirm or reject: AC50 of COc1ccc(-c2n[nH]c3ncc(-c4cccnc4)nc23)cc1F [NCGC00419143-01] lies strictly below 7 µM
A) MET

Q) AC50 strictly < 7 µM for this compound? CCN1CCN(C(=O)c2ccc3c(c2)N(Cc2ccccc2F)C(=O)c2ccccc2[S+]3[O-])CC1 (stereo not shown) [NCGC00109528-01]
A) MET

Q) AC50 strictly < 7 µM for this compound? COC(=O)c1cc(C(=O)c2ccc(Cl)cc2Cl)cn1C [MLS000546235-01]
A) NOT MET

Q) State whether 7 µM exceeds AC50 recorded for COc1ccc(NC(=O)c2nnn3c2CN(Cc2cccc(Cl)c2)C(=O)CC3)c(C)c1 [NCGC00415347-01] .
A) MET

Q) Is it true that AC50 reported for CC(O)CNCCNCc1c(OCc2ccccc2)ccc2ccccc12 (stereo not shown) [MLS000324858-01] is less than 7 µM?
A) NOT MET

Q) For this compound, is AC50 lower than 7 µM? COc1ccc(NC(=O)c2c(C)oc3ccc(O)c(CN4CCN(Cc5ccccc5)CC4)c23)cc1 [NCGC00115648-01]
A) MET

Q) Criterion: AC50 strictly below 7 µM. Is it met by Cc1nn(-c2ccc(C(C)C)cc2)c(C)c1[C@@H]1C=C[C@@H](NCc2ccccc2)C1 [NCGC00392636-01] ?
A) NOT MET

Q) Dear reviewer, please state whether CCc1cccc(-n2c(=O)c3cccnc3n2CC(=O)Nc2ccc(F)c(C)c2)c1 [NCGC00128424-01] has AC50 strictly beneath 7 µM.
A) MET

Q) Quick check: does C=C(C)COc1ccc(-c2n[nH]c(C)c2-c2ccccc2)c(O)c1 [MLS000083081-01] have AC50 under 7 µM?
A) MET

Q) AC50 under 7 µM? Item: CN(C)c1ccc2ncc(Nc3ccc(Oc4ccccc4)cc3)n2n1 [NCGC00412534-01]
A) NOT MET

Q) Below 7 µM on AC50? Entry Cc1cc(C)c(CN2C(=O)c3ccccc3[S+](=O)([O-])c3ccc(C(=O)OCC4CCCO4)cc32)c(C)c1 (stereo not shown) [NCGC00127808-01]
A) MET

Q) Below 7 µM on AC50? Entry CCN(CC)CCNC(=O)c1ccc(NC(=O)c2cccc(S(=O)(=O)N3CCc4ccccc43)c2)cc1 [MLS002169644-01]
A) MET

Q) Does O=C(c1n[nH]c2ccccc12)N1CCCC1c1nc(CCOCC2CCOCC2)no1 (stereo not shown) [NCGC00460318-01] have AC50 strictly under 7 µM?
A) NOT MET

Q) Dear colleague, could you confirm whether AC50 of Cc1cccc(CN2CCCC(O)(CNCc3ncccc3C)C2=O)c1 (stereo not shown) [NCGC00429062-01] falls below 7 µM? Thanks.
A) NOT MET

Q) Hello, is AC50 of the following compound strictly smaller than 7 µM? O=C1CC(c2ccccc2)N(Cc2ccncc2)CCCN(C(=O)Nc2ccccc2F)CCN1 (stereo not shown) [NCGC00467191-01]
A) MET

Q) Dear reviewer, please state whether COc1cc(NC(=O)CSc2nc(-c3ccccc3)no2)cc(OC)c1 [NCGC00127876-01] has AC50 strictly beneath 7 µM.
A) MET

Q) Quick check: does Cn1cnc2ccc(-c3cccc(O)c3)nc2c1=O [NCGC00414672-01] have AC50 under 7 µM?
A) MET

Q) Just wondering, is AC50 of CCC(CC)c1cc([C@H]2CN3CC[C@H]2C[C@@H]3CN[S+](=O)([O-])c2ccccc2C#N)nc(-c2ccncc2)n1 [NCGC00421343-01] below 7 µM?
A) MET

Q) I'd appreciate it if you could check whether CCn1c2c(c(=N)c3ccccc31)CCC2 [MLS001047391-01] has AC50 smaller than 7 µM.
A) MET

Q) Find out if reported AC50 for O=C1NC2(CCCN(Cc3ccccn3)C2)COc2ccccc21 (stereo not shown) [NCGC00477540-01] is less than 7 µM
A) MET

Q) Is AC50 of Cc1cc(OC(C)C(=O)NCCc2c[nH]c3ccccc23)c2c(C)cc(=O)oc2c1 (stereo not shown) [MLS001158613-01] strictly below 7 µM?
A) MET

Q) Answer whether the compound CC(=O)N1CCc2cc(Br)cc(S(=O)(=O)N3CCCCCC3)c21 [MLS000086258-01] has AC50 strictly less than 7 µM
A) MET

Q) AC50 under 7 µM? Item: Oc1ccc(-c2nc(C3CC3)nc3c2CN(CC2CCCCC2)CC3)cc1 [NCGC00480438-01]
A) MET

Q) Lab note: confirm whether the reported AC50 for this compound is below 7 µM, equality not counting. compound: CCC(C)N(CCNC(=O)c1ccc2c(c1)NC(=O)c1ccccc1S2)C1CCCCC1 (stereo not shown) [MLS001110969-01]
A) NOT MET

Q) In plain terms, does O=[N+]([O-])c1ccc(N2CCN(/C(S)=N/C3CCCCC3)CC2)cc1 [MLS000574247-01] come in under 7 µM for AC50?
A) MET

Q) Report whether reported AC50 is lower than 7 µM (strictly) for O=c1cc(-c2ccccc2)c2ccc3c(c2o1)CN(Cc1ccccc1)CO3 [NCGC00116340-01]
A) MET

Source of measurements: paper PMC7822874
